Values compiled from patent US20260297105A1.

- system.name: MEK1 (Homo sapiens, UniProt Q02750)
- Construct: purchased SignalChem M02-14H
- Sequence (Q02750 whole entry): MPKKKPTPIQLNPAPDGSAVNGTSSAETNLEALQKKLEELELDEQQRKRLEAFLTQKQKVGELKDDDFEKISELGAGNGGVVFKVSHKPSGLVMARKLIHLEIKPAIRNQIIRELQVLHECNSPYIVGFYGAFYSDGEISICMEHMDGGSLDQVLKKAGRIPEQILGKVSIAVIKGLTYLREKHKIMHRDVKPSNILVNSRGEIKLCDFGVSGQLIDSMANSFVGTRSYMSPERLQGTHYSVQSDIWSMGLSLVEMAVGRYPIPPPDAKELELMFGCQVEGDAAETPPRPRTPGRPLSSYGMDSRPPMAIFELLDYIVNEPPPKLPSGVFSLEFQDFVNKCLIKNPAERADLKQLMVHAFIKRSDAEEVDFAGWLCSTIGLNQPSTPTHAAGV
- Sequence (P15056 445-723 partner limits assumed): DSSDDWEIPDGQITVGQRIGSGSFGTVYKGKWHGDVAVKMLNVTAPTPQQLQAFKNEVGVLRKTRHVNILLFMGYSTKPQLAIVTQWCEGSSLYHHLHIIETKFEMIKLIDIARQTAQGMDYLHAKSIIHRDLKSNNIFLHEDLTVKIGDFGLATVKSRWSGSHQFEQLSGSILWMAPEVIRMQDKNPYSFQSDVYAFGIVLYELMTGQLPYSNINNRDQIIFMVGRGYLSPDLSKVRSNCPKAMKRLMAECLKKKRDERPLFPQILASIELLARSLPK
- measurement.description: MEK1 kinase cascade assay (ADP-Glo), inhibition of MEK1 kinase activity
- Format: biochemical
- test.settings: 25 nM BRAF, 6.25 nM MEK1, 0.5 μM ERK, 1 mM ATP; 20 min preincubation, 1 hr at 25° C.; read-out: BRAF ADP Glo kinase assay V3 (IC50)
attribute.measured: IC50

compound	system.name	value.reported
CNS(=O)(=O)Nc1cccc(CN2Cc3cc(F)c(OC(=O)N(C)C)c(F)c3OC2=O)c1F	MEK1 (Homo sapiens, UniProt Q02750)	< 5 nM
CNS(=O)(=O)Nc1nccc(CN2Cc3ccc(Oc4nccnn4)cc3OC2=O)c1F	MEK1 (Homo sapiens, UniProt Q02750)	5 to 50 nM
CNS(=O)(=O)Nc1cccc(CN2C(=O)Oc3cc(OC(=O)N(C)C)c(Cl)cc3[C@H]2C)c1F	MEK1 (Homo sapiens, UniProt Q02750)	5 to 50 nM
O=C1Oc2cc(Oc3ncco3)c(F)cc2C2(COC2)N1Cc1ccnc(NS(=O)(=O)C2CC2)c1F	MEK1 (Homo sapiens, UniProt Q02750)	50 to 500 nM
CNS(=O)(=O)Nc1nccc(CN2C(=O)Oc3cc(Oc4nccnn4)cnc3[C@@H]2C)c1F (stereo in doubt)	MEK1 (Homo sapiens, UniProt Q02750)	5 to 50 nM
CNS(=O)(=O)Nc1nccc(CN2C(=O)Oc3cc(Oc4ncco4)cnc3[C@@H]2C)c1F (stereo in doubt) [Compound 191]	MEK1 (Homo sapiens, UniProt Q02750)	50 to 500 nM
CNS(=O)(=O)Nc1cccc(CN2Cc3cc(F)c(OC(=O)N(C)C)cc3OC2=O)c1F	MEK1 (Homo sapiens, UniProt Q02750)	< 5 nM
CNS(=O)(=O)Nc1cccc(CN2C(=O)Oc3cc(OC(=O)N(C)C)ccc3[C@@H]2C)c1F	MEK1 (Homo sapiens, UniProt Q02750)	5 to 50 nM
CNS(=O)(=O)Nc1cccc(CN2Cc3ccc(Oc4ncccn4)cc3OC2=O)c1F	MEK1 (Homo sapiens, UniProt Q02750)	5 to 50 nM
[2H]C1([2H])c2ccc(Oc3cccnn3)cc2OC(=O)N1Cc1cccc(NS(=O)(=O)N(C)C)c1F	MEK1 (Homo sapiens, UniProt Q02750)	5 to 50 nM

Qu. Report IC50 for CNS(=O)(=O)Nc1cccc(CN2C(=O)Oc3cc(Oc4cccnn4)c(F)cc3[C@H]2C)c1F (single isomer, unassigned)
Ans. 5 to 50 nM

Qu. Entry CN(C)C(=O)Oc1ccc2c(c1)OC(=O)N(Cc1cccc(NS(=O)(=O)N3CCC(F)C3)c1F)C2 (centres unmarked) needs its IC50 filled in; supply it.
Ans. 5 to 50 nM

Qu. Hello, please tell me recorded IC50 for this one: `CN(C)C(=O)Oc1cc(F)c2c(c1)OC(=O)N(Cc1cccc(NS(=O)(=O)C3CC3)c1F)C2`
Ans. 5 to 50 nM

###

# pEC50 values compiled below
- Test system: BRAF-MEK1
- measurement.description: BRAF-MEK TR-FRET assay, stabilization of MEK1 and BRAF interaction
- Format: binding
- test.settings: 4 nM BRAF, 10 nM MEK, 100 μM ATP; 1 hr at 25° C.; read-out: BRAF-MEK TR-FRET Assay (EC50, fold stabilization)
pEC50: −log10 of the molar value.

molecule	attribute.measured	value.reported
CNS(=O)(=O)Nc1nccc(CN2C(=O)Oc3c(ccc(Oc4cccnn4)c3F)C23CCC3)c1F [Compound 174]	pEC50	> 7.30

Qu. Determine its reported pEC50: CNS(=O)(=O)Nc1cccc(CN2C(=O)Oc3c(ccc(OC(=O)N(C)C)c3F)C23COC3)c1F [Compound 77]
Ans. 6.70 to 7.30

Qu. Specify measured pEC50 for CNS(=O)(=O)Nc1cccc(CN2C(=O)Oc3cc(Oc4ncco4)c(F)cc3C2C)c1F (single isomer, unassigned) [Compound 85] .
Ans. 6.00 to 6.70

Qu. Respond only with pEC50 recorded for CNS(=O)(=O)Nc1cccc(CN2C(=O)Oc3cc(Oc4cccnn4)ccc3C23CC3)c1F [Compound 196]
Ans. > 7.30

Qu. Determine its reported pEC50: O=C1Oc2c(ccc(Oc3ncco3)c2F)C2(CCC2)N1Cc1ccnc(NS(=O)(=O)C2CC2)c1F [Compound 183]
Ans. 6.00 to 6.70

Qu. Specify reported pEC50 for the molecule shown: C[C@H]1c2c(F)cc(Oc3cccnn3)cc2OC(=O)N1Cc1cccc(NS(=O)(=O)C2CC2)c1F (single isomer, unassigned) [Compound 55]
Ans. 6.00 to 6.70

Qu. Specify measured pEC50 for CNS(=O)(=O)Nc1cccc(CN2C(=O)Oc3cc(OC(=O)N(C)C)c(Cl)cc3[C@H]2C)c1F [Compound 107] .
Ans. 6.00 to 6.70

###

- System: BRAF-MEK1
- measurement.description: BRAF-MEK TR-FRET assay, stabilization of MEK1 and BRAF interaction
- Assay type: binding
- test.settings: 4 nM BRAF, 10 nM MEK, 100 μM ATP; 1 hr at 25° C.; read-out: BRAF-MEK TR-FRET Assay (EC50, fold stabilization)
pEC50: −log10 of the molar value.
attribute.measured: pEC50

Solved cases below.
molecule	attribute.measured	value.reported
[2H]C1([2H])c2ccc(Oc3cccnn3)cc2OC(=O)N1Cc1cccc(NS(=O)(=O)NC)c1F	pEC50	6.70 to 7.30
O=C1Oc2cc(Oc3ncco3)c(F)cc2C2(CCC2)N1Cc1ccnc(NS(=O)(=O)C2CC2)c1F	pEC50	6.00 to 6.70
CNS(=O)(=O)Nc1nccc(CN2C(=O)Oc3cc(Oc4ncco4)cnc3[C@@H]2C)c1F (stereo in doubt)	pEC50	6.70 to 7.30

Qu. Name the recorded pEC50 of the molecule listed here: CNS(=O)(=O)Nc1cccc(CN2C(=O)Oc3cc(Oc4cccnn4)cnc3[C@H]2C)c1F (stereo in doubt)
Ans. 6.70 to 7.30

Qu. Provide measured pEC50 value, entry: `CN(C)C(=O)Oc1ccc2c(c1)OC(=O)N(Cc1cccc(NS(=O)(=O)N(C)C)c1F)C21CCC1`
Ans. 6.70 to 7.30

Qu. For `CNS(=O)(=O)Nc1nccc(CN2C(=O)Oc3cc(Oc4cccnn4)c(F)cc3C23COC3)c1F` , write its pEC50.
Ans. > 7.30

Qu. Write down pEC50 measured for item CN(C)C(=O)Oc1ccc2c(c1)OC(=O)N(Cc1cccc(NS(=O)(=O)N3CCC(C(N)=O)C3)c1F)C2 (centres unmarked)
Ans. 6.00 to 6.70

Qu. Annotate the molecule `CNS(=O)(=O)Nc1cccc(CN2C(=O)Oc3cc(OC(=O)N(C)C)ccc3C23CCC3)c1F` with its measured pEC50.
Ans. > 7.30

Qu. Dear colleague, please send me the reported pEC50 for `CNS(=O)(=O)Nc1cccc(CN2C(=O)Oc3cc(OC(=O)N(C)C)ccc3C23CNC3)c1F` when you can.
Ans. 6.00 to 6.70

Qu. For the molecule CNS(=O)(=O)Nc1cccc(CN2C(=O)Oc3cc(Oc4cccnn4)c(F)cc3[C@@H]2C)c1F (single isomer, unassigned) , give its measured pEC50 value.
Ans. 6.00 to 6.70

Qu. Note down pEC50 recorded for `CNS(=O)(=O)Nc1nccc(CN2C(=O)Oc3cc(Oc4ncco4)cc(F)c3C23COC3)c1F`
Ans. 6.00 to 6.70

###

The entries below come with measured pEC50 values attached.
- Tested on: BRAF-MEK1
- measurement.description: BRAF-MEK TR-FRET assay, stabilization of MEK1 and BRAF interaction
- Format: binding
- test.settings: 4 nM BRAF, 10 nM MEK, 100 μM ATP; 1 hr at 25° C.; read-out: BRAF-MEK TR-FRET Assay (EC50, fold stabilization)
pEC50: −log10 of the molar value.

Please review the following examples before continuing.
compound	pEC50
O=C1Oc2c(ccc(Oc3nccnn3)c2F)C2(CCC2)N1Cc1ccnc(NS(=O)(=O)C2CC2)c1F	6.70 to 7.30
CNS(=O)(=O)Nc1nccc(CN2C(=O)Oc3cc(Oc4cccnn4)ccc3C23COC3)c1F	6.70 to 7.30
CNS(=O)(=O)Nc1cccc(CN2Cc3cc(Cl)c(OC(=O)C4CC4)cc3OC2=O)c1F	6.70 to 7.30
CNS(=O)(=O)Nc1cccc(CN2C(=O)Oc3cc(Oc4cccnn4)cnc3C23CC3)c1F	> 7.30
CNS(=O)(=O)Nc1cccc(CN2Cc3cc(F)c(OC(=O)N(C)C)cc3OC2=O)c1F	6.70 to 7.30
CNS(=O)(=O)Nc1cccc(CN2C(=O)Oc3cc(OC(=O)N(C)C)c(Cl)cc3[C@@H]2C)c1F	6.70 to 7.30
CN(C)S(=O)(=O)Nc1cccc(CN2C(=O)Oc3cc(Oc4cccnn4)ccc3C23CCC3)c1F	> 7.30
CNS(=O)(=O)Nc1cccc(CN2C(=O)Oc3cc(Oc4cccnn4)cc(F)c3[C@H]2C)c1F (single isomer, unassigned)	6.70 to 7.30

Qu. Consider the compound `CNS(=O)(=O)Nc1cccc(CN2C(=O)Oc3c(ccc(Oc4ncco4)c3F)C23COC3)c1F` and give its recorded pEC50.
Ans. 6.00 to 6.70

Qu. Return pEC50 for the following compound: `CNS(=O)(=O)Nc1nccc(CN2C(=O)Oc3c(ccc(Oc4nccnn4)c3F)C23CCC3)c1F`
Ans. > 7.30

Qu. // Input: CNS(=O)(=O)Nc1cccc(CN2C(=O)Oc3c(ccc(Oc4cccnn4)c3F)[C@H]2C)c1F (single isomer, unassigned) . Output its pEC50 only.
Ans. 6.70 to 7.30

Qu. Entry `O=C1Oc2cc(Oc3cccnn3)c(F)cc2C2(COC2)N1Cc1cccc(NS(=O)(=O)C2CC2)c1F` needs its pEC50 filled in; supply it.
Ans. 6.70 to 7.30

Qu. Give reported pEC50 value for `CNS(=O)(=O)Nc1cccc(CN2Cc3ccc(Oc4ncco4)cc3OC2=O)c1F`
Ans. 6.00 to 6.70

Qu. Read off the recorded pEC50 for `CN(C)S(=O)(=O)Nc1nccc(CN2C(=O)Oc3cc(Oc4ncco4)ccc3C23CCC3)c1F`
Ans. 6.00 to 6.70

Qu. Specify measured pEC50 for `CNS(=O)(=O)Nc1nccc(CN2Cc3ccc(Oc4ncco4)cc3OC2=O)c1F` .
Ans. 6.70 to 7.30
